- Subject of test: Prostaglandin G/H synthase 2 (Homo sapiens)
- Sequence (P35354 whole entry): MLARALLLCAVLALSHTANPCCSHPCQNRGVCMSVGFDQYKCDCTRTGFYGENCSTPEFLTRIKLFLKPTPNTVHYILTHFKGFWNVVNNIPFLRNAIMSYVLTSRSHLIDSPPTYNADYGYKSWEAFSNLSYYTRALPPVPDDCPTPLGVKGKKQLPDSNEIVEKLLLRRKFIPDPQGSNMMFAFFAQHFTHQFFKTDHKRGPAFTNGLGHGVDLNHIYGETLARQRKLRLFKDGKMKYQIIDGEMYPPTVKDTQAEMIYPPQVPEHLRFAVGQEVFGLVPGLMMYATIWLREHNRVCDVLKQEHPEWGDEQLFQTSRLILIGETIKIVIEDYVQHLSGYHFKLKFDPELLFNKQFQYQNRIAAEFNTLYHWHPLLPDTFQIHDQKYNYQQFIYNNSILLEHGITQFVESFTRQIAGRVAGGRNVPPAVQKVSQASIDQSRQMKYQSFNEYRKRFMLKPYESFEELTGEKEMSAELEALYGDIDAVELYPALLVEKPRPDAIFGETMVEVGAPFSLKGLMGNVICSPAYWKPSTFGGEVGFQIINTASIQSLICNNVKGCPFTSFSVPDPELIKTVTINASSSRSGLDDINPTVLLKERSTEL
- Assay details: Competitive inhibition of human recombinant COX-2 by UV-Visible spectrophotometry
Items are presented alongside their recorded Ki.
Reported endpoint: Ki (nM)

>>> df
                              smiles_string  reported_endpoint  recorded_result
0  COC(=O)[C@H](Cc1c[nH]c2ccccc12)NC(=O)CNC(=O)C(=O)c1cn(S(=O)(=O)c2ccc(C)cc2)c2ccccc12                 Ki             1340
1  COC(=O)CNC(=O)CNC(=O)C(=O)c1cn(S(=O)(=O)c2ccc(C)cc2)c2ccccc12                 Ki             4660
2  Cc1ccc(S(=O)(=O)n2cc(C(=O)C(=O)N[C@@H](Cc3cnc[nH]3)C(=O)N[C@@H](CCC(=O)O)C(=O)O)c3ccccc32)cc1                 Ki               12
3  Cc1ccc(S(=O)(=O)n2cc(C(=O)C(=O)NCC(=O)NCC(=O)O)c3ccccc32)cc1                 Ki             3120
